- study system: anti-CC49 variable region antibodies in the serum of patient three
- test name: HPLC, 125I-HuCC49 + serum + 5 Tg competitor; fewer complexes = competitor bound
endpoint label: percent of complexes (%)
Unit % implied. Number only.

query: Dear colleague, I am looking for the recorded percent of complexes of the following binder: HuCC49 CDR variant H-3 (antibody, V domains shown) VH: QVQLVQSGAEVVKPGASVKISCKASGYTFTDHAIHWVKQNPGQRLEWIGYFSPGNDDFKYNERFKGKATLTADTSASTAYVELSSLRSEDTAVYFCTRGGYYGSGSGSNYWGQGTLVTVSS VL: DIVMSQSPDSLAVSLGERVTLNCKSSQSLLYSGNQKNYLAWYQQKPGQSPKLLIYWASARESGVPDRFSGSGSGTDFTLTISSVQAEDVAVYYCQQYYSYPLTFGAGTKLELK
result: 5.1
